Source: patent EP4721767A1

Molecular target: T1, human B7-H3 naturally expressed on the surface of SKOV3 cells (human, UniProt Q5ZPR3 29-534)
T1 construct: whole, on cells; also called surface antigen of SKOV3 cells; B7-H3 on the surface of SKOV3 cells
T1 sequence (looked up): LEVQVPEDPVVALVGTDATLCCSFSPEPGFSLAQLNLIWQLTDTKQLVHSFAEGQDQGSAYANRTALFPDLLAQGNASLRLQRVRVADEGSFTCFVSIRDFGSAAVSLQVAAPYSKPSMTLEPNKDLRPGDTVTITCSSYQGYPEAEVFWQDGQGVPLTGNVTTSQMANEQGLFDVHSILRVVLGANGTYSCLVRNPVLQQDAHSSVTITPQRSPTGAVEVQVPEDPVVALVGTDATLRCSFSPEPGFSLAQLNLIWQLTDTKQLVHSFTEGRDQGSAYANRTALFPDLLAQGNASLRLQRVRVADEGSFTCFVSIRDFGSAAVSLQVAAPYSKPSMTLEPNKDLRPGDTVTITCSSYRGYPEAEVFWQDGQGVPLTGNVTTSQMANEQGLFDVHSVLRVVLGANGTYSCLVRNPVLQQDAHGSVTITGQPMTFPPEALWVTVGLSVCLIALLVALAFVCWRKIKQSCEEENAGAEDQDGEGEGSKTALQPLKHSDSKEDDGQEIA
Assay: flow cytometry (MFI) on SKOV3 cells naturally expressing human B7-H3
measure-name: pEC50
One number for each entry, as −log10 of the molar value.

[
  {
    "binder": "hz10B4m2 (antibody, V domains shown, LCDR3 variant of hz10B4 (SSN→SAS); also called hz10B4-VH×hz10B4-Lm2-VL) VH: EVQLVQSGAEVKKPGASVKVSCKASGYTFTEYIMHWVRQAPGQGLEWMGGINPASGGTTYNQKFKGRVTMTRDTSISTAYMELSRLRSEDTAVYYCARKGKDYFDWYFDVWGQGTTVTVSS VL: DIQLTQSPSSLSASVGDRVTMTCSASSSVSYMHWYQQKPGKAPKLLIYDTSKLASGVPSRFSGSGSGTDFTLTISSLQPEDFATYYCQQWSASPLTFGGGTKVEIK",
    "measure-name": "pEC50",
    "quantitative-result": 8.84
  },
  {
    "binder": "hz10B4m4 (antibody, V domains shown, LCDR3 variant of hz10B4 (SSN→SSG); also called hz10B4-VH×hz10B4-Lm4-VL) VH: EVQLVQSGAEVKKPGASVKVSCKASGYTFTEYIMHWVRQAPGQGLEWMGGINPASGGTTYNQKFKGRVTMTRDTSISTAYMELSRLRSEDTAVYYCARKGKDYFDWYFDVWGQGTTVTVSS VL: DIQLTQSPSSLSASVGDRVTMTCSASSSVSYMHWYQQKPGKAPKLLIYDTSKLASGVPSRFSGSGSGTDFTLTISSLQPEDFATYYCQQWSSGPLTFGGGTKVEIK",
    "measure-name": "pEC50",
    "quantitative-result": 7.77
  }
]

Field pEC50 (entry hz10B4m5 (antibody, V domains shown, LCDR3 variant of hz10B4 (SSN→SGS); also called hz10B4-VH×hz10B4-Lm5-VL) VH: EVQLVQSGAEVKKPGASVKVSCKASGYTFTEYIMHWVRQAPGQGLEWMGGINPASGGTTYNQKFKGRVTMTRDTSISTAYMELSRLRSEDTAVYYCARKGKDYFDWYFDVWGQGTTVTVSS VL: DIQLTQSPSSLSASVGDRVTMTCSASSSVSYMHWYQQKPGKAPKLLIYDTSKLASGVPSRFSGSGSGTDFTLTISSLQPEDFATYYCQQWSGSPLTFGGGTKVEIK ) reads 8.65
